# Assayed Target: T1, human IL-18BP (interleukin-18 binding protein, isoform A) (human, UniProt O95998 31-194)
# T1 sequence: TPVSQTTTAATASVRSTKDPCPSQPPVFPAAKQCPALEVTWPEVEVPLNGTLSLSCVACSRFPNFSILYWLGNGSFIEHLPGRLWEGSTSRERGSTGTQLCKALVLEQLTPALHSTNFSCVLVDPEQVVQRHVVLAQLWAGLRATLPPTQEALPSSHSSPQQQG
# Procedure Details: cell-based or functional assay
Endpoint Name: EC50 in PBMC Assay 1 (endogenous IL-18BP), IFNγ (nM)
Could you give me the number in nM? Just the number is fine.

// known answers, use as guide
[[record]]
binder = "SA311a (antibody, human IgG1, V domains shown, humanized; human IgG1 (suffix a), kappa) VH: QVQLQESGPGLVKPSQTLSLTCTVSGYSITSDYNAHWIRQPPGKGLEWIGYIHYSGQTMYNPSLKSRVTISRDTSKNQFSLKLSSVTAADTAVYYCARNYGSIYVNYFDYWGQGTLVTVSS VL: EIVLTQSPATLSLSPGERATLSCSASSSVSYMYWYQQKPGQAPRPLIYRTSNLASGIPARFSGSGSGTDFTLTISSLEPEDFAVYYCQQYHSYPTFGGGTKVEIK"
unit_tag = "nM"
result = 0.6

[[record]]
binder = "SA330a (antibody, human IgG1, V domains shown, humanized; human IgG1 (suffix a), kappa) VH: QVQLQESGPGLVKPSQTLSLTCTVSGYSITSDYNAHWIRQPPGKGLEWIGYIHYSGQTYYNPSLKSRVTISRDTSKNQFSLKLSSVTAADTAVYYCARNFGSIYVNYFDYWGQGTLVTVSS VL: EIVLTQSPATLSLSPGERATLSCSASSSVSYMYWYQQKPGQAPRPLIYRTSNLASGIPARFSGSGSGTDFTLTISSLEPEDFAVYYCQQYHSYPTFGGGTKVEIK"
unit_tag = "nM"
result = 21


Please find the next binder below.
Sample SA338a (antibody, human IgG1, V domains shown, humanized; human IgG1 (suffix a), kappa) VH: QVQLQESGPGLVKPSQTLSLTCTVSGYSITQDYNAHWIRQPPGKGLEWIGYIHYSGQTYYNPSLKSRVTISRDTSKNQFSLKLSSVTAADTAVYYCARNFGSIYVNYFDYWGQGTLVTVSS VL: EIVLTQSPATLSLSPGERATLSCSASSSVSYMYWYQQKPGQAPRPLIYRTSNLASGIPARFSGSGSGTDFTLTISSLEPEDFAVYYCQLYHSYPTFGGGTKVEIK ; EC50 in PBMC Assay 1 (endogenous IL-18BP), IFNγ observed: 0.5
